- Target Desc: human HCA1 (Homo sapiens, UniProt Q9BXC0)
- Construct: full-length, N-terminal HA and C-terminal FLAG tag, pcDps, transient in CHO-K1
- Sequence (Q9BXC0 whole entry): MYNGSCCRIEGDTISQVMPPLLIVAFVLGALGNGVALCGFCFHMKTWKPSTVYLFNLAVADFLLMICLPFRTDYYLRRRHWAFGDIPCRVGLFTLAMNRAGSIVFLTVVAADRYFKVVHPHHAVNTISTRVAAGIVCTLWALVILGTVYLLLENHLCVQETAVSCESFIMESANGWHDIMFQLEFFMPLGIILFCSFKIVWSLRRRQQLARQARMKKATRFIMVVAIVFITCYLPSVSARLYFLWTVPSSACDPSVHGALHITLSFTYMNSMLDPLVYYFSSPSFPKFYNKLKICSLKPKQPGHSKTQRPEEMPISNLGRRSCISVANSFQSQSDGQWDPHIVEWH
- Test Method Notes: cAMP inhibition assay (ALPHAScreen), transfected CHO-K1
- Study Conditions: read-out: HCA2 / Basal cAMP (% of mock-transfected)
Measurement Label: EC50 (µM)
One number for each entry, in µM.

Lab entry: human HCA1 (Homo sapiens, UniProt Q9BXC0) assay, compound C[C@H](O)C(=O)O [L-lactate] , EC50 = 2400

* * *

- Target Desc: human HCA2 (Homo sapiens, UniProt Q8TDS4)
- Construct: full-length, N-terminal HA and C-terminal FLAG tag, pcDps, transient in CHO-K1
- Sequence (Q8TDS4 whole entry): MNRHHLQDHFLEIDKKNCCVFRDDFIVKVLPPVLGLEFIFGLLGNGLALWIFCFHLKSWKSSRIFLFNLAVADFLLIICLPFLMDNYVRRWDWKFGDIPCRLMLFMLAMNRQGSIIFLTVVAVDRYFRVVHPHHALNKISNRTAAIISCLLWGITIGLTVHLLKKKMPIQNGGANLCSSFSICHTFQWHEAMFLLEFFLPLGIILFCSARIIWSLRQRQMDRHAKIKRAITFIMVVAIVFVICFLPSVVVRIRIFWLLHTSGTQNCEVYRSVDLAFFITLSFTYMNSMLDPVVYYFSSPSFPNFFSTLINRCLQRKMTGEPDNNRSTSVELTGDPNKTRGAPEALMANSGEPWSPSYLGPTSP
- Test Method Notes: cAMP inhibition assay (ALPHAScreen), transfected CHO-K1
- Study Conditions: read-out: HCA3 / Basal cAMP (% of mock-transfected)
Measurement Label: pEC50
Give bare numbers, as −log10 of the molar value.

The recorded pEC50 for entry `C[C@@H](O)CC(=O)O` equals 3.28

* * *

- Target Desc: orangutan HCA3 (Pongo pygmaeus, UniProt A0A4Y1JWR4)
- Construct: gene HCAR3; full-length, HA/FLAG tags, CHO-K1
- Sequence (A0A4Y1JWR4 1-363): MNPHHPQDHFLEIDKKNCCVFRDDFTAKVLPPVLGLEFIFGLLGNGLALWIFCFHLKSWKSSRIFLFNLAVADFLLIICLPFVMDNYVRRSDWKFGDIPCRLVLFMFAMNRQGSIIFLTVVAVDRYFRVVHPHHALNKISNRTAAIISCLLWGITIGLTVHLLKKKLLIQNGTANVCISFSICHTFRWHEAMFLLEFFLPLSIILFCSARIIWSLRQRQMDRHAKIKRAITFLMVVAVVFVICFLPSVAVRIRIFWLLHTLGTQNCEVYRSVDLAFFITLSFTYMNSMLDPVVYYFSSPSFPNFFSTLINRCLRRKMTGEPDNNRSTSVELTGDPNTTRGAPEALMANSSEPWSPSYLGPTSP
- Test Method Notes: cAMP inhibition assay (ALPHAScreen), transfected CHO-K1
- Format: cell-based
- Study Conditions: read-out: EC50 (μM) (95% CI)
Measurement Label: EC50 (µM)
Numbers only, in µM.

The recorded EC50 for entry O=C(O)[C@H](O)Cc1ccccc1 [D-PLA] equals 1.2

* * *

- Target Desc: human HCA3 (Homo sapiens, UniProt P49019)
- Construct: gene HCAR3; full-length, N-terminal HA and C-terminal FLAG tag, pcDps, transient in CHO-K1
- Sequence (P49019 whole entry): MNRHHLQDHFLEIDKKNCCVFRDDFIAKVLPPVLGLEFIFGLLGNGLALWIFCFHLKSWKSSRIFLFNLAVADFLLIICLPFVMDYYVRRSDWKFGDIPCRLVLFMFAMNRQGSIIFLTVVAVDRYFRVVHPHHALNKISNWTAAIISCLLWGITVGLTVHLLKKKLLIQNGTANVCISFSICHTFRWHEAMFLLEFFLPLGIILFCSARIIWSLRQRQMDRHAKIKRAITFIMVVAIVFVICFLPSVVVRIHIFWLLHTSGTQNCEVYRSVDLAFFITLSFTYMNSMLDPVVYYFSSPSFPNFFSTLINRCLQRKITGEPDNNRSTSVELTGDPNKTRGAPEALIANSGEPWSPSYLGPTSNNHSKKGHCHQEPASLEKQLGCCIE
- Test Method Notes: cAMP inhibition assay (ALPHAScreen), transfected CHO-K1
- Assay type: cell-based
- Study Conditions: read-out: EC50 (μM) (95% CI)
Measurement Label: EC50 (µM)
Numbers only, in µM.

The recorded EC50 for entry `O=C(O)[C@H](O)Cc1ccccc1` equals 0.15

Reference source for all entries: paper PMC6532841
